molecular target: FcγRIIIA F158 (human Fc receptor panel, Octet) (human); assay: BLI (Octet HTX), receptor on anti-penta-His biosensor, 1:1 model
Kd overview

| substance | experimental target | Kd / nM |
| --- | --- | --- |
| OCREVUS (ocrelizumab) (antibody) | FcγRIIIA F158 (human Fc receptor panel, Octet) (human) | 592 |
| ARZERRA (ofatumumab) (antibody) | FcγRIIIA F158 (human Fc receptor panel, Octet) (human) | 482 |
| GAZYVA (obinutuzumab) (antibody) | FcγRIIIA F158 (human Fc receptor panel, Octet) (human) | 98 |

* * *

target: FcγRI (human Fc receptor panel, Octet) (human) (UniProt P12314); assay: BLI (Octet HTX), receptor on anti-penta-His biosensor, 1:1 model
Sequence (P12314 16-288 limits assumed): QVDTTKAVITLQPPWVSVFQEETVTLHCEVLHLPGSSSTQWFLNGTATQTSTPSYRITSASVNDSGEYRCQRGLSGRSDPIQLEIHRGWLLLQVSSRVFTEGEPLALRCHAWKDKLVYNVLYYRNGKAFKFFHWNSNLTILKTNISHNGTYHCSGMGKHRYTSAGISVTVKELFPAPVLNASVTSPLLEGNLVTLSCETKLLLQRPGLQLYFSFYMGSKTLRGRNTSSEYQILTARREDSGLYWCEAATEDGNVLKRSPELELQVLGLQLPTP
pKd: −log10 of the molar value.
# pKd annotations

| substance | pKd |
| --- | --- |
| GAZYVA (obinutuzumab) (antibody) | 7.59 |
| ARZERRA (ofatumumab) (antibody) | 7.68 |
| OCREVUS (ocrelizumab) (antibody) | 7.72 |
| RITUXAN (rituximab) (antibody) | 7.82 |

* * *

molecular target: FcγRIIIA V158 (human Fc receptor panel, Octet) (human); assay: BLI (Octet HTX), receptor on anti-penta-His biosensor, 1:1 model
Below, each of the substances is paired with its reported Kd value.

| substance | Kd / µM |
| --- | --- |
| GAZYVA (obinutuzumab) (antibody) | 0.04 |
| ARZERRA (ofatumumab) (antibody) | 0.207 |
| OCREVUS (ocrelizumab) (antibody) | 0.138 |

* * *

Property: pKd; scope: individual substances
biological target: FcRn (human Fc receptor panel, Octet) (human); assay: BLI (Octet HTX), receptor on anti-penta-His biosensor, 1:1 model
pKd: −log10 of the molar value.

| substance | pKd |
| --- | --- |
| ARZERRA (ofatumumab) (antibody) | 7.19 |
| RITUXAN (rituximab) (antibody) | 7.37 |
| GAZYVA (obinutuzumab) (antibody) | 7.41 |
| OCREVUS (ocrelizumab) (antibody) | 7.21 |

* * *

Listed substances paired with reported ADCC EC50 (Raji target cells, KILR CD16a effector cells)
biological target: FcγIIIA Receptor on the effector cells (human); test: cell-based or functional assay
measure: ADCC EC50 (Raji target cells, KILR CD16a effector cells) (ng/mL)

| substance | unit abbrev | observed measurement |
| --- | --- | --- |
| RITUXAN (rituximab) (antibody) | ng/mL | 5.46 |
| OCREVUS (ocrelizumab) (antibody) | ng/mL | 0.0608 |
| ARZERRA (ofatumumab) (antibody) | ng/mL | 0.0741 |
| GAZYVA (obinutuzumab) (antibody) | ng/mL | 0.00658 |

* * *

# pKd annotations
molecular target: FcγRIIIB (human Fc receptor panel, Octet) (human); assay: BLI (Octet HTX), receptor on anti-penta-His biosensor, 1:1 model
pKd: −log10 of the molar value.
measure: pKd

| substance | measure | observed measurement |
| --- | --- | --- |
| OCREVUS (ocrelizumab) (antibody) | pKd | 5.68 |
| GAZYVA (obinutuzumab) (antibody) | pKd | 6.56 |
| ARZERRA (ofatumumab) (antibody) | pKd | 6.51 |
| RITUXAN (rituximab) (antibody) | pKd | 6.51 |

* * *

Catalogue of pKd readings, one per entry.
molecular target: FcγRIIIa 158F receptor (SPR assay); experiment: SPR, receptor amine-coupled to the chip, antibody injected, steady state affinity
pKd: −log10 of the molar value.
measure: pKd

| substance | observed measurement |
| --- | --- |
| ARZERRA (ofatumumab) (antibody) | 4.83 |
| GAZYVA (obinutuzumab) (antibody) | 5.75 |
| RITUXAN (rituximab) (antibody) | 5.16 |
| OCREVUS (ocrelizumab) (antibody) | 5.17 |

* * *

target: FcγRIIIa 158V receptor (SPR assay); experiment: SPR, receptor amine-coupled to the chip, antibody injected, 1:1 kinetics
pKd: −log10 of the molar value.

| substance | pKd |
| --- | --- |
| ARZERRA (ofatumumab) (antibody) | 5.78 |
| OCREVUS (ocrelizumab) (antibody) | 5.99 |
| RITUXAN (rituximab) (antibody) | 5.92 |
| GAZYVA (obinutuzumab) (antibody) | 6.62 |

* * *

Attribute: Kd
target: FcγRIIB/C (human Fc receptor panel, Octet) (human) (UniProt P31994); assay: BLI (Octet HTX), receptor on anti-penta-His biosensor, 1:1 model
Sequence (P31994 46-217 limits assumed): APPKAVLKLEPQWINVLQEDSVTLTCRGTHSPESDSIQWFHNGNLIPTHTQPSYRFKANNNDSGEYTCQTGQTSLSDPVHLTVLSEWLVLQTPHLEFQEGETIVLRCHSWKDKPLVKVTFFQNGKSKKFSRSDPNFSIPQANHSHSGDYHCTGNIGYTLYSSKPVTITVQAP
measure: Kd (nM)

| substance | unit abbrev | observed measurement |
| --- | --- | --- |
| OCREVUS (ocrelizumab) (antibody) | nM | 362 |
| ARZERRA (ofatumumab) (antibody) | nM | 156 |
| RITUXAN (rituximab) (antibody) | nM | 211 |
| GAZYVA (obinutuzumab) (antibody) | nM | 225 |

* * *

target: FcγRIIA (human Fc receptor panel, Octet) (human); assay: BLI (Octet HTX), receptor on anti-penta-His biosensor, 1:1 model

| substance | Kd, nM |
| --- | --- |
| ARZERRA (ofatumumab) (antibody) | 232 |
| OCREVUS (ocrelizumab) (antibody) | 624 |
| GAZYVA (obinutuzumab) (antibody) | 281 |
| RITUXAN (rituximab) (antibody) | 253 |

Reference for the values: patent US11965032
